The reader will find reported Avg ΣFIC (range) values listed item by item below.
- System: CA-MRSA
- protocol-text: Checkerboard assay (FIC index)
- Type: cell-based, Staphylococcus aureus
- experimental-parameters: antibiotic combined with PEP35 (added together); CA-MRSA 69615 (USA400)

Enquiry: Reported Avg ΣFIC (range), compound C[C@@H](O)[C@H]1C(=O)N2C(C(=O)O)=C(S[C@@H]3CN[C@H](C(=O)N(C)C)C3)[C@H](C)[C@H]12 [Meropenem] : ____
Return: 0.49

Enquiry: Okay, and CN(C)c1cc(NC(=O)CNC(C)(C)C)c(O)c2c1C[C@H]1C[C@H]3[C@H](N(C)C)C(O)=C(C(N)=O)C(=O)[C@@]3(O)C(O)=C1C2=O [Tigecycline, tigecycline] ?
Return: 0.93 (0.62-1.12)

Enquiry: Okay, and CCCCCCCCCC(=O)N[C@@H](Cc1c[nH]c2ccccc12)C(=O)N[C@H](CC(N)=O)C(=O)N[C@@H](CC(=O)O)C(=O)N[C@@H]1C(=O)NCC(=O)N[C@@H](CCCN)C(=O)N[C@@H](CC(=O)O)C(=O)N[C@H](C)C(=O)N[C@@H](CC(=O)O)C(=O)NCC(=O)N[C@H](CO)C(=O)N[C@@H]([C@H](C)CC(=O)O)C(=O)N[C@@H](CC(=O)c2ccccc2N)C(=O)O[C@@H]1C [Daptomycin, daptomycin] ?
Return: 1.18 (1.015-1.5)

Enquiry: Okay, and CC(=O)NC[C@H]1CN(c2ccc(N3CCOCC3)c(F)c2)C(=O)O1 [Linezolid, linezolid] ?
Return: 0.80 (0.515-1.12)

Continuing:
Enquiry: Reported Avg ΣFIC (range), compound CN[C@H](CC(C)C)C(=O)N[C@H]1C(=O)N[C@@H](CC(N)=O)C(=O)N[C@H]2C(=O)N[C@H]3C(=O)N[C@H](C(=O)N[C@H](C(=O)O)c4cc(O)cc(O)c4-c4cc3ccc4O)[C@H](O)c3ccc(c(Cl)c3)Oc3cc2cc(c3O[C@@H]2O[C@H](CO)[C@@H](O)[C@H](O)[C@H]2O[C@H]2C[C@](C)(N)[C@H](O)[C@H](C)O2)Oc2ccc(cc2Cl)[C@H]1O [Vancomycin] : ____
Return: 1.19 (1.03-1.5)
